The measurements presented in this section are drawn from PubChem BioAssay (NCI).

tested on: OVCAR-5 ovarian; assay: NCI tumour cell line growth inhibition, 48 h
REPORTED_METRIC: TGI

// known answers, use as guide
Tell me the measured TGI of CN1CCN(Cc2ccc(NC(=O)c3[nH]ncc3Nc3ncnc4sccc34)cc2)CC1 , please.
> 100 µM

// same read-out, input: Cn1c(=O)c2c(nc(C[N+]3([O-])CCOCC3)n2C)n(C)c1=O
> 100 µM

Same question, CC(=O)OCC(OC(C)=O)C(OC(C)=O)C(OC(C)=O)C(=O)CNn1c(-c2ccccc2)nc2ccc(Br)cc2c1=O (stereo not drawn) this time
> 100 µM

***
Can you share its TGI? I mean this compound: O=C1/C(=C/c2ccc(Cl)cc2)NC(=S)N1CN1CCOCC1
> 100 µM

Can you check O=C(O)c1ccc(N=Nc2cc(S(=O)(=O)O)c3cccnc3c2O)cc1 next?
> 100 µM

// repeat for Cc1[nH]nc2c1N=C(c1ccccc1F)c1cc(C#N)ccc1N2 and report
18.8 µM

Try O=C1SC(c2ccc(Cl)cc2)(c2ccc(Cl)cc2)c2ccccc21 next.
> 100 µM

And for O=c1oc2ccccc2cc1-c1nnc(-c2ccccc2)s1 ?
> 100 µM

Repeat for the following compound: NC12CC3CC(C1)CC(Cl)(C3)C2
> 100 µM

Let us now turn to C[C@@H]1C[C@@H](O)[C@@]2(O)C13CC(=O)OC(C3)[C@@H](C)[C@@]2(C)CO (stereo partly drawn)
> 100 µM

Please answer likewise for Oc1cc(O)cc(/C=C/c2ccc(O)c(O)c2)c1
20.7 µM

Moving on to the next compound: CC1(C)C=C(/C=N/Nc2ccc(Br)cc2)C(C#N)=C(O)C1(C#N)C#N
> 100 µM

Entry to check: NS(=O)(=O)c1ccc(NC(=O)CC(=O)Nc2ccc(S(N)(=O)=O)cc2)cc1
> 100 µM

Same question for Nc1nc(Cl)cc(NCC2(CO)CCC2)n1 please.
> 100 µM

Entry O=C1/C(=C/c2ccc([N+](=O)[O-])s2)Oc2ccccc21 please
3.53 µM

Field entry: CCOC(=O)N1C/C(=C/c2ccc(OC)cc2)C(=O)/C(=C/c2ccc(OC)cc2)C1
21.6 µM

Same for CCc1ccc(/C(C)=N/NC(N)=S)cc1
72.3 µM

###

tested on: SR leukemia; assay: NCI tumour cell line growth inhibition, 48 h
Overview of recorded TGI for various molecules

For the molecule shown here, Cc1nccc2c1cnc1ccnn12 , give the reported TGI.
> 100 µM

Another molecule to look at: OCC(O)COc1c(Cl)ccc(Cl)c1Cl (configuration not stated)
> 100 µM

Try this molecule too: C[C@]12CC(c3ccccc3O1)C(C#N)C(=O)N2 (some centres not stated)
> 100 µM

Would you kindly look at the next entry?
I'd like to know its TGI. The molecule in question is NC1=NC2(O)c3ccccc3C(=O)C2(O)N1 (configuration not stated)
> 100 µM

###

test system: EKVX NSCLC; test: NCI tumour cell line growth inhibition, 48 h
Quick reference for TGI among some molecules

Some molecules with known TGI results, for comparison:
Fill blank: measured TGI of the molecule c1ccc2cc(OCC3CO3)c(OCC3CO3)cc2c1 (stereo unspecified) is ____.
24.1 µM

Similarly, Cn1cc2c(=O)n3ncn(-c4ccc(Br)cc4)c3nc2n1 ?
> 100 µM

What do we get for O=C(O)c1ccc(S(=O)(=O)N=Nc2c(O)[nH]c3ccccc23)cc1 ?
> 100 µM

New cases:
Param item = COC(=O)C1=C(c2cc(OC)c(OC)c(OC)c2)OC(c2cc(OC)c(OC)c(OC)c2)C1COC(C)=O (stereo unspecified) ; retrieve measured TGI.
> 100 µM

Same question for Cc1c2ncccc2nc2[nH]c3ccc(OCCN(C)C)cc3c12 please.
21.2 µM

Please give the result for NC(=O)C12C3C4C1C1C2C3C41C(N)=O (stereo unspecified) too.
> 100 µM

Same for O=C(c1ccco1)c1c(C(F)(F)F)nc2cc(C(F)(F)F)ccc2[n+]1[O-]
> 100 µM

Cc1[nH]n(-c2nc3c(c(=O)[nH]2)CCC3)c(=O)c1CCO , same question.
> 100 µM

Please give the result for Cc1cnc2[nH]c(-c3ccc(F)cc3)cc(=O)c2c1 too.
> 100 µM

Then this molecule: COc1cc2c(cc1OC)C1C(O)C(OC)C=C3CC[N+](C)(C2)C31 (stereo unspecified)
> 100 µM

Another molecule to check: O=C(N/C(=C\c1ccc(Br)cc1)c1nc2ccccc2s1)c1ccccc1
> 100 µM

###

test system: DMS 273 small cell lung; assay: NCI tumour cell line growth inhibition, 48 h
// reported TGI for each item listed

Param readout = TGI; param system = DMS 273 small cell lung; param query = COc1ccc(/C=C/c2nc(=S)[nH][nH]2)cc1 ; response: value
> 100 µM

Further cases:
Query for DMS 273 small cell lung: what TGI does the record show for NC12CC3CC(C1)CC(Cl)(C3)C2 ?
> 100 µM

How about this compound: COc1ccc(/C=C2\N=C(c3ccccc3)N(Nc3nnc(NN4C(=O)/C(=C/c5ccc(OC)cc5)N=C4c4ccccc4)c4ccccc34)C2=O)cc1
> 100 µM

Please give the result for COC1(OC)CC2C(=O)N(Cc3ccccc3)C1CC2S(=O)(=O)c1ccccc1 (centres undefined) too.
> 100 µM

What about CCOC(OCC)c1ccc(/C=C/c2cc(OC)c(OC)c(OC)c2)cc1 ?
41.3 µM

Same for CCOC(=O)C1=C(O)c2ccccc2C(=O)C1=O
> 100 µM

// repeat for CC(=O)OCC(OC(C)=O)C(OC(C)=O)C(OC(C)=O)C(=O)CNn1c(-c2ccccc2)nc2ccc(Br)cc2c1=O (centres undefined) and report
> 100 µM

Next entry: COc1cccc(/C(C=O)=C(\Cl)c2ccc(OC)c(OC)c2)c1
27.3 µM

###

test system: COLO 205 colon; experiment: NCI tumour cell line growth inhibition, 48 h
log10(TGI): recorded values
Lab note - TGI converted to log10 from values in µM.

I would be grateful if you could share the reported log10(TGI) for COc1cccc(-c2cccc(SC)n2)n1 .
1.60

Then what about the compound O=C(c1cc(Br)ccc1O)c1cc(Br)ccc1O ?
1.52

// repeat for CN(C)CCOc1nc2c3cccnc3cc(-c3cccc(Cl)c3)c2c2ncccc12 and report
0.44

Also Cc1c2ncccc2nc2[nH]c3ccc(OCCN(C)C)cc3c12 , if possible.
0.90

Ok, now NC(N)=N/N=C/c1cccc(Cl)c1Cl
0.50

Try this compound too: CCCCN(CCCC)CC(C)(C)C(O)c1ccc(OC)c2ccccc12 (centres undefined)
1.20

Let us now turn to CCN(CC)Cc1ccc2cccnc2c1O
1.62

Moving on to the next compound: CC1=CCC[C@@](C)(O)[C@@H]2C[C@H]3C(CSc4ccccc4)C(=O)O[C@H]3[C@@H](O2)[C@H](C)CCC1 (some centres undefined)
1.61

Consider the record given below.
log10(TGI) for CC[C@@H](C)[C@H]([C@H](CC(=O)N1CCC[C@@H]1[C@@H](OC)[C@H](C)C(=O)N[C@H](Cc1ccccc1)c1nccs1)OC)N(C)C(=O)[C@H](NC(=O)[C@@H](C(C)C)N(C)C)C(C)C ?
-3.52

###

system: CCRF-CEM leukemia; test: NCI tumour cell line growth inhibition, 48 h
Overview of recorded TGI for various molecules
Write the number in µM without appending the unit.

Returns the measured TGI for the input molecule. Input: CO[C@@](c1ccccc1)(c1nc(C#N)c(N)o1)C(F)(F)F
74.7

Now turn to the next molecule.
Returns the measured TGI for the input molecule. Input: C[C@H]1C(OCCOC2O[C@@H]3O[C@@]4(C)CC[C@H]5[C@H](C)CCC([C@H]2C)[C@@]35O4)O[C@@H]2O[C@@]3(C)CC[C@H]4[C@H](C)CCC1[C@@]24O3 (stereo not given in full)
82.5

###

test system: SF-268 CNS; experiment: NCI tumour cell line growth inhibition, 48 h
Items are presented alongside their recorded GI50.

Examples from the recorded data:
What GI50 value was documented for this molecule, Cc1ccc(C2SCc3nc4ccc(C(=O)c5ccccc5)cc4n32)cc1 (centres undefined) ?
22.4 µM

Try this molecule too: O=C(Nc1cccc(C(F)(F)F)c1)c1cccc(NC2=C(Cl)C(=O)N(Cc3ccccc3)C2=O)c1
5.96 µM

Can you handle C[C@@H]1CC[C@H]2C(COC/C=C/COCC3=C(C(F)(F)F)O[C@@H]4O[C@@]5(C)CC[C@H]6[C@H](C)CC[C@@H]3[C@@]46OO5)=C(C(F)(F)F)O[C@@H]3O[C@@]4(C)CC[C@@H]1[C@]32OO4 next?
0.0846 µM

---
Would you kindly share the measured GI50 for BrC(Br)(Br)c1cnc2ccccc2n1 ?
4 µM

###

tested on: RXF 393 renal; test: NCI tumour cell line growth inhibition, 48 h
REPORTED_METRIC: GI50

Worked examples, 6 compounds total:
Name the recorded GI50 for CCCCCCCCCCCCOC1C(C(COC2OC(C(O)CN3CCCCC3)C3OC(C)(C)OC23)NC(=O)Nc2ccccc2)OC2OC(C)(C)OC21 (configuration not stated) .
6.03 µM

Same lookup for COc1cc2nc(-c3ccc(-n4cncc4-c4ccc(N)cc4)cc3)sc2c(OC)c1OC , please.
4.41 µM

Follow-up item: O=C(c1ccco1)c1c(C(F)(F)F)nc2cc(C(F)(F)F)ccc2[n+]1[O-]
20.3 µM

Now try Oc1ccc(Br)cc1/C=N/NC(=S)NC12CC3CC(CC(C3)C1)C2 .
1.52 µM

What do we get for CCCCN(CCCC)CC(C)(C)C(O)c1ccc(OC)c2ccccc12 (configuration not stated) ?
1.5 µM

Likewise for BrC(Br)(Br)c1cnc2ccccc2n1 ?
1.06 µM

---
Give the measured GI50 of CCCC[P+](c1ccccc1)(c1ccccc1)c1ccccc1 .
18.5 µM
